In this section, each of the molecules is paired with its reported melting point.

Please give the measured melting point for this molecule: O=C(CBr)c1ccc(O)cc1
115 to 118 °C

====

value-type: melting point

The cases that follow already have their melting point on record.
OCc1cnn(-c2c(Cl)cc(C(F)(F)F)cc2Cl)n1 : 87 to 88 °C
COc1ccc(Nc2ccnc(F)c2)cc1 : 150 °C

Please give the measured melting point for this compound: CCC1(CCC(=O)OC)CCCN2CCc3c([nH]c4ccccc34)C21 (configuration not stated)
110 °C

Record: CC(=O)C1CCC(CNC(=O)c2cccnc2Oc2ccc(F)cc2)CC1 (configuration not stated)
110 to 111 °C

Record: Cc1cccc(C(=O)Nc2c[nH]nc2C(=O)NCCCOC(C)C)n1
169 to 170 °C

Record: Cc1nc2c(s1)Cc1cc(Cl)ccc1-2
94 °C

Record: CCOC(=O)c1cnc2sc(C(=O)Cc3ccccc3)c(C)c2c1O
208 to 214 °C

Record: CCOC(=O)C(=CNc1ccccc1)C(=O)OCC
45 to 46 °C

====

In this section, each of the compounds is paired with its reported melting point.

CCCS(=O)(=O)Nc1ccc(-c2ccc(C(=O)O)c(=O)[nH]2)cc1 : > 260 °C
O=[N+]([O-])c1ccc(-c2cc(O)ccc2-c2ncnc(-c3ccccc3)n2)cc1 : 238 to 240 °C
CCCCOc1csc(C)c1C(=O)O : 66 to 68 °C
O=C(O)C1=Cc2cc(C(F)F)ccc2OC1C(F)(F)F (stereo not given) : 135 to 136 °C
CCCN1CCC(c2ccc(C(=O)NC3(C(=O)NCC#N)CCCCC3)cc2)CC1 : 198 to 200 °C
CCOC(=O)c1cn2c(n1)CNc1ccccc1-2 : 206 to 208 °C

Please give the measured melting point for this compound: Cc1c(C)c2c(c(C)c1NCc1ccc(F)cc1)C(c1ccccc1)C(C)(C)O2 (stereo not given)
93 to 95 °C

Record: Cc1nc(-n2ccc(N)cc2=O)sc1C(=O)NCc1ccccc1
171 to 172 °C

Record: COC(=O)C(C)=C(C(=O)OC)C1C=CC=CC1(C)C(C(=O)OC)=C(C)C(=O)OC (stereo not given)
90 °C

Record: NC(C(=O)O)C(O)CC(=O)O (stereo not given)
137 to 138 °C

====

value-type: melting point

The cases that follow already have their melting point on record.
CN(C)c1cc(C(OC(=O)C(Cl)(Cl)Cl)c2ccccc2)c([N+](=O)[O-])cc1[N+](=O)[O-] (stereo not given) : 91 to 92 °C
Cc1ccc2c(c1)C1=NN(c3ccc(OCCCN4CCCCC4)cc3)C(=O)CC1CC2 (stereo not given) : 171 to 172 °C
O=C1c2ccccc2C(=O)N1OCc1cc[nH]n1 : 166 to 168 °C
COc1nc2cc(Cl)ccc2nc1Cl : 92 to 95 °C
O=C(O)c1cn(C2CC2)c2c(F)c(N3CC(O)C3)c(F)cc2c1=O : 286 to 288 °C

Please give the measured melting point for this compound: Cc1ccc(-c2c(N)oc3c(C(C)(C)C)cc(C(C)(C)C)cc23)cc1C
128 to 130 °C

Record: O=C(O)c1sc2cc(OCc3cccnc3)ccc2c1S(=O)c1ccccc1CO (stereo not given)
210 °C

Record: CCCCC1=N/C(=C\c2c[nH]c3ncccc23)C(=O)N1C
220 to 222 °C

Record: CC1Oc2ccc(Cn3ccnc3)cc2NC1N (stereo not given)
152 to 156 °C

Record: CCC(=O)Nc1ccc(C(=O)CC)cc1
154 to 155 °C
